# System: ryegrass, Italian (Italian ryegrass, Lolium multiflorum)
# experiment: Test A preemergence, visual injury rating 0-100
# Format: in vivo
# test_conditions: 500 g ai/ha, 0 to 100 scale
Each item that follows carries a reported Ryegrass, Italian plant response rating.

>  <compound>
CC1=[N+]([O-])C(C(=O)Nc2cccc(F)c2F)C(c2ccc3c(c2)OCO3)C1 (racemic)

>  <Ryegrass, Italian plant response rating>
20

$$$$
>  <compound>
CC1=[N+]([O-])C(C(=O)Nc2cccc(F)c2F)C(c2cccc(Cl)c2)C1 (racemic)

>  <Ryegrass, Italian plant response rating>
50

$$$$
>  <compound>
CC1=[N+]([O-])C(C(=O)Nc2cccc(F)c2F)C(c2cccc(F)c2)C1 (racemic)

>  <Ryegrass, Italian plant response rating>
40

$$$$
>  <compound>
CC1=[N+]([O-])C(C)(C(=O)Nc2cccc(F)c2F)C(c2ccc(C(F)(F)F)cc2)C1 (racemic)

>  <Ryegrass, Italian plant response rating>
60

$$$$

====

Each item that follows carries a reported Foxtail, Giant plant response rating (0 to 100 scale).
# System: foxtail, giant (giant foxtail, Setaria faberii)
# experiment: Test A preemergence, visual injury rating 0-100
# Type: in vivo
# test_conditions: 125 g ai/ha
# Excerpt: […]
measure: Foxtail, Giant plant response rating (0 to 100 scale)

>  <compound>
CC1=[N+]([O-])C(C(=O)Nc2cccc(F)c2F)C(c2cc(C)cc(F)c2)C1 (racemic) [Compound 103]

>  <system_name>
foxtail, giant (giant foxtail, Setaria faberii)

>  <result>
90

$$$$
>  <compound>
CC1=[N+]([O-])C(C(=O)Nc2cccc(F)c2F)C(c2cc(F)c(F)c(F)c2)C1 (stereo not shown) [Compound 95]

>  <system_name>
foxtail, giant (giant foxtail, Setaria faberii)

>  <result>
90

$$$$
>  <compound>
CC1=[N+]([O-])C(C(=O)Nc2cccc(F)c2F)C(c2cccc(C3OCCO3)c2)C1 (racemic) [Compound 105]

>  <system_name>
foxtail, giant (giant foxtail, Setaria faberii)

>  <result>
60

$$$$
>  <compound>
CC1=[N+]([O-])[C@@H](C(=O)Nc2cccc(F)c2F)[C@H](c2cccc(OC(C)(C)C)c2)C1 [Compound 69]

>  <system_name>
foxtail, giant (giant foxtail, Setaria faberii)

>  <result>
100

$$$$
>  <compound>
COc1cc(OC)cc(C2CC(C)=[N+]([O-])C2C(=O)Nc2cccc(F)c2F)c1 (stereo not shown) [Compound 96]

>  <system_name>
foxtail, giant (giant foxtail, Setaria faberii)

>  <result>
90

$$$$
>  <compound>
CC1=[N+]([O-])C(C(=O)Nc2cccc(F)c2F)C(c2cccc(Cl)c2)C1 (racemic) [Compound 3]

>  <system_name>
foxtail, giant (giant foxtail, Setaria faberii)

>  <result>
100

$$$$
>  <compound>
CC1=[N+]([O-])C(C(=O)Nc2cccc(F)c2F)C(c2cccc(F)c2)C1 (racemic) [Compound 8]

>  <system_name>
foxtail, giant (giant foxtail, Setaria faberii)

>  <result>
90

$$$$

====

# Tested on: barnyardgrass (Echinochloa crus-galli)
# experiment: Test B flooded paddy test, visual rating 0-100
# test_conditions: Flood, 250 g ai/ha, applied to paddy water, rated after 13 to 15 days
measure: Barnyardgrass plant response rating (0 to 100 scale)

>  <compound>
CC1=[N+]([O-])C(C(=O)Nc2ccccc2C#N)C(c2ccc(C(F)(F)F)cc2)C1 (racemic)

>  <readout_number>
0

$$$$
>  <compound>
CC1=[N+]([O-])[C@H](C(=O)Nc2cccc(F)c2F)[C@@H](c2ccc(Cl)cc2)C1

>  <readout_number>
80

$$$$
>  <compound>
CC1=[N+]([O-])C(C(=O)Nc2cccc(F)c2F)C(c2cc(C)cc(CF)c2)C1 (racemic)

>  <readout_number>
0

$$$$
>  <compound>
CC1=[N+]([O-])C(C(=O)Nc2cccc(F)c2F)C(c2cccc(C)c2)C1 (racemic)

>  <readout_number>
85

$$$$
>  <compound>
CC1=[N+]([O-])C(C(=O)Nc2cccc(F)c2F)C(c2ccc(Br)cn2)C1 (racemic)

>  <readout_number>
35

$$$$
>  <compound>
CC1=[N+]([O-])[C@H](C(=O)Nc2cccc(F)c2F)[C@@H](c2ccc3c(c2)OC(F)(F)O3)C1 (relative stereo)

>  <readout_number>
75

$$$$
>  <compound>
CC1=[N+]([O-])C(C(=O)Nc2cccc(F)c2F)C(c2cc(F)c(C(F)(F)F)c(F)c2)C1 (racemic)

>  <readout_number>
40

$$$$

====

# Test system: foxtail, giant (giant foxtail, Setaria faberii)
# experiment: Test A preemergence, visual injury rating 0-100
# Format: in vivo
# test_conditions: 125 g ai/ha
measure: Foxtail, Giant plant response rating (0 to 100 scale)

>  <molecule>
CC1=[N+]([O-])C(C(=O)Nc2cccc(F)c2F)C(c2ccc(C(F)(F)F)c(Br)c2)C1 (racemic)

>  <readout_number>
80

$$$$
>  <molecule>
CC1=[N+]([O-])C(C(=O)Nc2cccc(F)c2F)C(c2ccc(C)c(Br)c2)C1 (racemic)

>  <readout_number>
80

$$$$
>  <molecule>
CC1=[N+]([O-])C(C(=O)Nc2cccc(F)c2F)C(c2cc(C)ccc2C)C1 (racemic)

>  <readout_number>
80

$$$$
>  <molecule>
CC1=[N+]([O-])C(C(=O)Nc2cccc(F)c2F)C(c2c(F)cccc2Cl)C1 (racemic)

>  <readout_number>
0

$$$$
>  <molecule>
CC1=[N+]([O-])C(C(=O)Nc2cccc(F)c2F)C(c2cccc(Oc3ccc(Cl)cn3)c2)C1 (racemic)

>  <readout_number>
60

$$$$
>  <molecule>
CC1=[N+]([O-])[C@@H](C(=O)Nc2cccc(F)c2F)[C@H](c2cccc(Oc3ccc(F)cn3)c2)C1

>  <readout_number>
30

$$$$
>  <molecule>
CC1=[N+]([O-])C(C(=O)Nc2cccc(F)c2F)C(c2ccc(F)c(Cl)c2)C1 (racemic)

>  <readout_number>
90

$$$$
>  <molecule>
CC1=[N+]([O-])[C@H](C(=O)Nc2cccc(F)c2F)[C@@H](c2ccc(F)c(OC(F)(F)C(F)F)c2)C1

>  <readout_number>
90

$$$$
>  <molecule>
CC1=[N+]([O-])[C@@H](C(=O)Nc2cccc(F)c2F)[C@H](c2cccc(Oc3ncc(F)cc3F)c2)C1

>  <readout_number>
90

$$$$
>  <molecule>
CC1=[N+]([O-])C(C(=O)Nc2cccc(F)c2F)C(c2ccc(OC(F)(F)F)c(F)c2)C1 (racemic)

>  <readout_number>
90

$$$$
>  <molecule>
CC1=[N+]([O-])C(C(=O)Nc2cccc(F)c2F)C(c2cccc(Br)n2)C1 (racemic)

>  <readout_number>
0

$$$$
>  <molecule>
CC1=[N+]([O-])C(C(=O)Nc2cccc(F)c2F)C(c2ccc(F)c(Oc3ccc(F)cn3)c2)C1 (racemic)

>  <readout_number>
90

$$$$
>  <molecule>
CC1=[N+]([O-])C(C(=O)Nc2cccc(F)c2F)C(c2cc(C)nc(OC(F)F)c2)C1 (racemic)

>  <readout_number>
90

$$$$
>  <molecule>
CC1=[N+]([O-])C(C(=O)Nc2cccc(F)c2F)C(c2cccc(C)c2C)C1 (racemic)

>  <readout_number>
90

$$$$
>  <molecule>
CC1=[N+]([O-])C(C(=O)Nc2cccc(F)c2F)C(c2ccc(C(F)(F)F)cc2F)C1 (centres unmarked)

>  <readout_number>
90

$$$$
>  <molecule>
CC1=[N+]([O-])C(C(=O)Nc2cccc(F)c2F)C(c2cccc(Cl)c2F)C1 (centres unmarked)

>  <readout_number>
90

$$$$
>  <molecule>
CC1=[N+]([O-])C(C(=O)Nc2cccc(F)c2F)C(c2ccc3c(c2)OCO3)C1 (racemic)

>  <readout_number>
100

$$$$
>  <molecule>
CC1=[N+]([O-])C(C(=O)Nc2cccc(F)c2F)C(c2cccc(F)c2C)C1 (racemic)

>  <readout_number>
90

$$$$
>  <molecule>
CC1=[N+]([O-])C(C(=O)Nc2cccc(F)c2F)C(c2cccc(Oc3ccc(F)cc3)c2)C1 (racemic)

>  <readout_number>
40

$$$$
>  <molecule>
COc1ccc(C2CC(C)=[N+]([O-])C2C(=O)Nc2cccc(F)c2F)cc1C(F)(F)F (racemic)

>  <readout_number>
90

$$$$
>  <molecule>
CC1=[N+]([O-])C(C(=O)Nc2cccc(F)c2F)C(c2ccc(F)c(Oc3ccc(Cl)nc3)c2)C1 (racemic)

>  <readout_number>
30

$$$$
>  <molecule>
COc1cccc(C2CC(C)=[N+]([O-])C2C(=O)Nc2cccc(F)c2F)n1 (racemic)

>  <readout_number>
0

$$$$
>  <molecule>
CC1=[N+]([O-])C(C(=O)Nc2cccc(F)c2F)C(c2ccc(F)c(Oc3ncc(F)cn3)c2)C1 (racemic)

>  <readout_number>
80

$$$$

====

# Test system: wheat (Triticum aestivum)
# experiment: Test A postemergence, visual injury rating 0-100
# Format: in vivo
# test_conditions: 125 g ai/ha, 0 to 100 scale

>  <compound>
CC1=[N+]([O-])C(C(=O)Nc2cccc(F)c2F)C(c2cc(F)c(C(F)(F)F)c(F)c2)C1 (racemic)

>  <system_name>
wheat (Triticum aestivum)

>  <Wheat plant response rating>
40

$$$$
>  <compound>
COc1cc(C2CC(C)=[N+]([O-])C2C(=O)Nc2cccc(F)c2F)ccc1C(F)(F)F (centres unmarked)

>  <system_name>
wheat (Triticum aestivum)

>  <Wheat plant response rating>
20

$$$$
>  <compound>
CC1=[N+]([O-])[C@@H](C(=O)Nc2cccc(F)c2F)[C@H](c2ccc(Cl)cc2)C1 (relative stereo)

>  <system_name>
wheat (Triticum aestivum)

>  <Wheat plant response rating>
20

$$$$
>  <compound>
CC1=[N+]([O-])C(C(=O)Nc2cccc(F)c2F)C(c2cccc(C)c2C)C1 (racemic)

>  <system_name>
wheat (Triticum aestivum)

>  <Wheat plant response rating>
50

$$$$
>  <compound>
CC1=[N+]([O-])[C@H](C(=O)Nc2cccc(F)c2F)[C@@H](c2ccc(C(F)(F)F)cc2)C1

>  <system_name>
wheat (Triticum aestivum)

>  <Wheat plant response rating>
50

$$$$
>  <compound>
CC1=[N+]([O-])[C@H](C(=O)Nc2cccc(F)c2F)[C@@H](c2ccc3c(c2)OC(F)(F)O3)C1 (relative stereo)

>  <system_name>
wheat (Triticum aestivum)

>  <Wheat plant response rating>
70

$$$$
>  <compound>
CC1=[N+]([O-])[C@@H](C(=O)Nc2cccc(F)c2F)[C@H](c2ccc(C(F)(F)F)cc2)C1 (relative stereo)

>  <system_name>
wheat (Triticum aestivum)

>  <Wheat plant response rating>
40

$$$$
>  <compound>
CC1=[N+]([O-])C(C(=O)Nc2cccc(F)c2F)C(c2ccc(Cl)c(C(F)(F)F)c2)C1 (racemic)

>  <system_name>
wheat (Triticum aestivum)

>  <Wheat plant response rating>
10

$$$$
>  <compound>
CC1=[N+]([O-])C(C(=O)Nc2cccc(F)c2F)C(c2ccc(=O)n(Cc3ccc(Cl)cc3)c2)C1 (racemic)

>  <system_name>
wheat (Triticum aestivum)

>  <Wheat plant response rating>
0

$$$$
>  <compound>
CC1=[N+]([O-])C(C(=O)Nc2cccc(F)c2F)C(c2cc(C)cc(C(F)(F)F)c2)C1 (centres unmarked)

>  <system_name>
wheat (Triticum aestivum)

>  <Wheat plant response rating>
70

$$$$
>  <compound>
CC1=[N+]([O-])C(C(=O)Nc2cccc(F)c2F)C(c2ccc(C(F)(F)F)nc2)C1 (racemic)

>  <system_name>
wheat (Triticum aestivum)

>  <Wheat plant response rating>
20

$$$$
>  <compound>
CC1=[N+]([O-])[C@H](C(=O)Nc2cccc(F)c2F)[C@@H](c2ccc(C(F)F)cc2)C1 (relative stereo)

>  <system_name>
wheat (Triticum aestivum)

>  <Wheat plant response rating>
60

$$$$
>  <compound>
CC1=[N+]([O-])C(C(=O)Nc2cccnc2F)C(c2ccc(C(F)(F)F)cc2)C1 (racemic)

>  <system_name>
wheat (Triticum aestivum)

>  <Wheat plant response rating>
0

$$$$
>  <compound>
CC1=[N+]([O-])C(C(=O)Nc2cccc(F)c2F)C(c2cccc(F)c2C)C1 (racemic)

>  <system_name>
wheat (Triticum aestivum)

>  <Wheat plant response rating>
40

$$$$
